- Tested on: Lambsquarter (Chenopodium album)
- EXPERIMENTAL_DETAILS: Preemergence herbicidal activity, soil spray
- Format: in vivo
- CONDITIONS_USED: Chenopodium album, pre-emergence, 504 h; Table 5; rate 560 ppm; visual score after 3 weeks, 100 complete kill or no germination; read-out: Pre-emergent % control CHEAL
RECORDED_METRIC: pest or weed control at 560 ppm (%)
// return numeric value only (unit: %, not printed)

>>> df
                            smiles_data  reported_value
0  COC(=O)c1nc(-c2ccc(C)cc2)c(F)c(N)c1F              90

Simply: `COC(=O)c1nc(-c2ccc(Cl)cc2)cc(N)c1Cl` , Lambsquarter (Chenopodium album), pest or weed control at 560 ppm = 100

Result for `Nc1c(Cl)c(C(=O)O)nc(-c2ccc(Cl)cc2)c1Cl` , tested on Lambsquarter (Chenopodium album), pest or weed control at 560 ppm: 100

The reported Lambsquarter (Chenopodium album) pest or weed control at 560 ppm of `Cc1cccc(-c2cc(N)c(Cl)c(C(=O)O)n2)c1` is 100

Observed pest or weed control at 560 ppm on Lambsquarter (Chenopodium album), entry `COC(=O)c1nc(-c2ccc(C)cc2)cc(N)c1Cl` , equals 100
